target_desc: T1, human angiopoietin-2 protein (human, UniProt O15123 19-496)
T1 construct: also called Ang-2; Ang2
T1 sequence (looked up): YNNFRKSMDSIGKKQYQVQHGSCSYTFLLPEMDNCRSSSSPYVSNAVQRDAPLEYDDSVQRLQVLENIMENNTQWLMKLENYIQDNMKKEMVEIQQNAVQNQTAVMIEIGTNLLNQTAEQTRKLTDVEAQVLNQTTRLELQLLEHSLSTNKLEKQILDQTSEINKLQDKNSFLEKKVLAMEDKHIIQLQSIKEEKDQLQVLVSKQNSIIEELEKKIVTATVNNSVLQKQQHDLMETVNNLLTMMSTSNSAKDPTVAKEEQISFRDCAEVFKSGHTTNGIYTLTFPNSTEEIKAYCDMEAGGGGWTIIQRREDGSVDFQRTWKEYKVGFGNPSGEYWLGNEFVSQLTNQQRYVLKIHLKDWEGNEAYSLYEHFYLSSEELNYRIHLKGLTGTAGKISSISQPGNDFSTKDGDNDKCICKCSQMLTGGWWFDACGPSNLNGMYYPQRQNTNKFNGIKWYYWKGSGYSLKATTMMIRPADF
assay: competitive ELISA: Tie-2-Fc binding to coated Ang-2; T
pIC50: −log10 of the molar value. Where no end group is shown, it is not given here. [ ]: non-standard residue; d: D form. Phe(4-NO2) = N[C@@H](Cc1ccc([N+](=O)[O-])cc1)C(=O)O; Phe(4-COOH) = N[C@@H](Cc1ccc(C(=O)O)cc1)C(=O)O; Bpa = N[C@@H](Cc1ccc(C(=O)c2ccccc2)cc1)C(=O)O; Hyp = O=C(O)[C@@H]1C[C@@H](O)CN1; 0P linker = not defined here; ThA = not defined here
// pIC50 lookup, one value per entry

- binder: "QK(Ac)YQPLDEK(Ac)DK(0P linker)TL[Phe(4-NO2)]DQFMLQQG-NH2 (reading uncertain; also: N-terminal acyl cap, acyl not given here, printed as Q(Kac)Y QPL DE(Kac) DK(0P)T L(NO2)FD QFM LQQ G, also called 4048 T) [Compound 4048, peptide plus linker (T)]"
  pIC50: 7.08
- binder: "QK(Ac)YQ[Hyp]LDE[ThA]DK(0P linker)TL[Bpa]DQFMLQQG-NH2 (not fully specified; reading uncertain; also: N-terminal acyl cap, acyl not given here) [Compound 4046, peptide plus linker (T)]"
  pIC50: 7.08
- binder: "QXYQPLDELDKTLYDQFMLQQG (N-terminal acyl cap; C-terminal amino cap; Kac 2; 0P linker on K11, also called 4029 T) [Compound 4029, peptide plus linker (T)]"
  pIC50: 7.08
- binder: "QNYQPLDELDKTL[Phe(4-COOH)]DQFMLQQG-NH2 (not fully specified (residue 11, N-terminus); also: N-terminal acyl cap, acyl not given here, also called 4057 T) [Compound 4057, peptide plus linker (T)]"
  pIC50: 6.96

src = patent US20120321591A1
